Cited source for all entries: the supplement of paper PMC10567573

B1: ZBTB22 (parent)
chain: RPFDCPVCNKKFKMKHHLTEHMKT

- Variants of: B1
- assay.notes: protein stability index of a GFP-peptide fusion (GPS, HEK-293T) (PSI 1-6); higher = more stable;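 also: lentivirally expressed fusions sorted by FACS into six bins by GFP to DsRed ratio, PSI derived from sequencing read proportions per bin multiplied by bin number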
- experimental.context: c terminus: a fixed tail appended
The reader will find reported protein stability index values listed item by item below.

[
  {
    "mutations": "E20K",
    "protein stability index": 3.1
  },
  {
    "mutations": "C8Y",
    "protein stability index": 2.9
  },
  {
    "mutations": "L18A",
    "protein stability index": 2.93
  },
  {
    "mutations": "C8I",
    "protein stability index": 2.72
  },
  {
    "mutations": "C8T",
    "protein stability index": 3.48
  },
  {
    "mutations": "H17Q",
    "protein stability index": 2.74
  },
  {
    "mutations": "F12Q",
    "protein stability index": 2.6
  },
  {
    "mutations": "N9A",
    "protein stability index": 2.95
  },
  {
    "mutations": "L18Q",
    "protein stability index": 2.58
  },
  {
    "mutations": "K13D",
    "protein stability index": 3.45
  },
  {
    "mutations": "T24C",
    "protein stability index": 3.07
  },
  {
    "mutations": "H21C",
    "protein stability index": 3.33
  },
  {
    "mutations": "K11E",
    "protein stability index": 2.89
  },
  {
    "mutations": "M14P",
    "protein stability index": 2.5
  },
  {
    "mutations": "T24D",
    "protein stability index": 3.55
  },
  {
    "mutations": "R1G",
    "protein stability index": 3.08
  },
  {
    "mutations": "P2F",
    "protein stability index": 2.72
  },
  {
    "mutations": "F12S",
    "protein stability index": 2.53
  },
  {
    "mutations": "C8P",
    "protein stability index": 2.62
  },
  {
    "mutations": "F12Y",
    "protein stability index": 2.4
  },
  {
    "mutations": "L18F",
    "protein stability index": 2.7
  },
  {
    "mutations": "K15R",
    "protein stability index": 2.19
  }
]
